- Tested on: GLXMAW (Soybean, Williams)
- METHOD: Preemergence herbicidal evaluation
- Assay type: in vivo, Glycine max, (L.) Merr. cv Williams
- STATED_CONDITIONS: Rate 0.0620 kg/ha; rated 4-5 weeks after treatment
QUANTITY_KIND: Preemergence herbicidal rating GLXMAW

[[record]]
molecule = "CC(C)C1COC(c2nsc3ccc(-n4c(=O)cc(C(F)(F)F)n(C)c4=O)cc23)=N1 (centres unmarked)"
assay_value = 1.0

[[record]]
molecule = "Cc1cnn(-c2nsc3ccc(-n4c(=O)cc(C(F)(F)F)n(C)c4=O)cc23)c1"
assay_value = 0.0

[[record]]
molecule = "Cc1cccnc1-c1nsc2cc(F)c(-n3c(=O)cc(C(F)(F)F)n(C)c3=O)cc12"
assay_value = 5.0

[[record]]
molecule = "Cn1c(C(F)(F)F)cc(=O)n(-c2ccc3snc(C4OC(C)(C)C(C)(C)O4)c3c2)c1=O"
assay_value = 7.5

[[record]]
molecule = "C[C@@H]1OC(c2nsc3cc(F)c(-n4c(=O)cc(C(F)(F)F)n(C)c4=O)cc23)O[C@@H]1C (some centres unmarked) [Compound 66]"
assay_value = 9.0

[[record]]
molecule = "Cn1c(C(F)(F)F)cc(=O)n(-c2ccc3snc(-c4ccco4)c3c2)c1=O"
assay_value = 1.0

[[record]]
molecule = "Cc1cc(C)nc(-c2nsc3ccc(-n4c(=O)cc(C(F)(F)F)n(C)c4=O)cc23)n1"
assay_value = 2.0

[[record]]
molecule = "Cn1c(C(F)(F)F)cc(=O)n(-c2ccc3snc(C4OC(=O)C(C)(C)O4)c3c2)c1=O (centres unmarked)"
assay_value = 2.5


====

- System: AMBEL (Ambrosia artemisifolia)
- METHOD: Postemergence herbicidal evaluation
- Assay type: in vivo, L.
- STATED_CONDITIONS: rate 0.0320 kg/ha
QUANTITY_KIND: Postemergence herbicidal rating, AMBEL

[[record]]
compound = "Cn1ccnc1-c1nsc2ccc(-n3c(=O)cc(C(F)(F)F)n(C)c3=O)cc12 [Compound 5]"
assay_value = 2.0

[[record]]
compound = "C[C@H]1OC(c2nsc3ccc(-n4c(=O)cc(C(F)(F)F)n(C)c4=O)cc23)O[C@@H]1C [Compound 48]"
assay_value = 9.0

[[record]]
compound = "Cc1cccnc1-c1nsc2ccc(-n3c(=O)cc(C(F)(F)F)n(C)c3=O)cc12 [Compound 19]"
assay_value = 9.0

[[record]]
compound = "Cn1c(C(F)(F)F)cc(=O)n(-c2ccc3snc(C4OCCS4)c3c2)c1=O (stereo not shown) [Compound 31]"
assay_value = 9.0

[[record]]
compound = "Cc1ccc(-c2nsc3ccc(N4C(=O)C5=C(CCCC5)C4=O)cc23)s1 [Compound 20]"
assay_value = 6.0

[[record]]
compound = "Cn1c(C(F)(F)F)cc(=O)n(-c2ccc3snc(-c4ccccn4)c3c2)c1=O [Compound 9]"
assay_value = 9.0

[[record]]
compound = "CC(=O)N1CCSC1c1nsc2ccc(-n3c(=O)cc(C(F)(F)F)n(C)c3=O)cc12 (stereo not shown) [Compound 29]"
assay_value = 9.0


====

- Tested on: SAGPY (Sagittaria pygmaea)
- METHOD: Flooded paddy, postemergence weed control
- Assay type: in vivo, L.
- STATED_CONDITIONS: 0.1250 kg/ha into flood water; postemergence weeds; rated 3-4 weeks after treatment
We begin with a simple list: items and their reported herbicide rating (0-9) SAGPY.
QUANTITY_KIND: herbicide rating (0-9) SAGPY

[[record]]
mol_smiles = "Cn1c(C(F)(F)F)cc(=O)n(-c2ccc3snc(-c4sccc4Cl)c3c2)c1=O"
test_system = "SAGPY (Sagittaria pygmaea)"
quantity_kind = "herbicide rating (0-9) SAGPY"
assay_value = 4.0

[[record]]
mol_smiles = "Cc1cc(C)c(-c2nsc3ccc(-n4c(=O)cc(C(F)(F)F)n(C)c4=O)cc23)s1"
test_system = "SAGPY (Sagittaria pygmaea)"
quantity_kind = "herbicide rating (0-9) SAGPY"
assay_value = 0.0

[[record]]
mol_smiles = "COC(=O)COc1ccsc1-c1nsc2ccc(-n3c(=O)cc(C(F)(F)F)n(C)c3=O)cc12"
test_system = "SAGPY (Sagittaria pygmaea)"
quantity_kind = "herbicide rating (0-9) SAGPY"
assay_value = 0.0

[[record]]
mol_smiles = "Cc1ccc(-c2nsc3ccc(-n4c(=O)cc(C(F)(F)F)n(C)c4=O)cc23)s1"
test_system = "SAGPY (Sagittaria pygmaea)"
quantity_kind = "herbicide rating (0-9) SAGPY"
assay_value = 0.0

[[record]]
mol_smiles = "Cn1c(C(F)(F)F)cc(=O)n(-c2ccc3snc(-c4ncccn4)c3c2)c1=O"
test_system = "SAGPY (Sagittaria pygmaea)"
quantity_kind = "herbicide rating (0-9) SAGPY"
assay_value = 0.0

[[record]]
mol_smiles = "Cn1c(C(F)(F)F)cc(=O)n(-c2ccc3snc(-c4ccsc4)c3c2)c1=O"
test_system = "SAGPY (Sagittaria pygmaea)"
quantity_kind = "herbicide rating (0-9) SAGPY"
assay_value = 9.0


====

- System: ZEAMX (Corn, Field)
- METHOD: Preemergence herbicidal evaluation
- Type: in vivo, Zea mays, L.
- STATED_CONDITIONS: Rate 0.1250 kg/ha; rated 4-5 weeks after treatment
We begin with a simple list: items and their reported Preemergence herbicidal rating ZEAMX.
QUANTITY_KIND: Preemergence herbicidal rating ZEAMX

[[record]]
molecule = "Cn1c(C(F)(F)F)cc(=O)n(-c2ccc3snc(-c4nccs4)c3c2)c1=O [Compound 53]"
quantity_kind = "Preemergence herbicidal rating ZEAMX"
assay_value = 5.0

[[record]]
molecule = "CCCC1COC(c2nsc3ccc(-n4c(=O)cc(C(F)(F)F)n(C)c4=O)cc23)O1 (stereo not drawn) [Compound 77]"
quantity_kind = "Preemergence herbicidal rating ZEAMX"
assay_value = 7.5

[[record]]
molecule = "Cc1cccnc1-c1nsc2cc(F)c(-n3c(=O)cc(C(F)(F)F)n(C)c3=O)cc12 [Compound 44]"
quantity_kind = "Preemergence herbicidal rating ZEAMX"
assay_value = 7.5

[[record]]
molecule = "Cc1cnn(-c2nsc3ccc(-n4c(=O)cc(C(F)(F)F)n(C)c4=O)cc23)c1 [Compound 59]"
quantity_kind = "Preemergence herbicidal rating ZEAMX"
assay_value = 5.0

[[record]]
molecule = "C[C@@H]1C[C@H](C)OC(c2nsc3cc(F)c(-n4c(=O)cc(C(F)(F)F)n(C)c4=O)cc23)O1 (stereo partly drawn) [Compound 67]"
quantity_kind = "Preemergence herbicidal rating ZEAMX"
assay_value = 9.0

[[record]]
molecule = "Cc1cc(C)nc(-c2nsc3ccc(-n4c(=O)cc(C(F)(F)F)n(C)c4=O)cc23)n1 [Compound 40]"
quantity_kind = "Preemergence herbicidal rating ZEAMX"
assay_value = 8.0


====

- System: ABUTH (Abutilon theophrasti)
- METHOD: Preemergence herbicidal evaluation
- Type: in vivo, Medic.
- STATED_CONDITIONS: Rate 0.1250 kg/ha; rated 4-5 weeks after treatment
We begin with a simple list: items and their reported Preemergence herbicidal rating ABUTH.
QUANTITY_KIND: Preemergence herbicidal rating ABUTH

[[record]]
molecule = "Cc1cnn(-c2nsc3ccc(-n4c(=O)cc(C(F)(F)F)n(C)c4=O)cc23)c1 [Compound 59]"
test_system = "ABUTH (Abutilon theophrasti)"
assay_value = 9.0

[[record]]
molecule = "Cn1c(C(F)(F)F)cc(=O)n(-c2ccc3snc(C4(C)OCCO4)c3c2)c1=O [Compound 54]"
test_system = "ABUTH (Abutilon theophrasti)"
assay_value = 9.0

[[record]]
molecule = "C[C@@H]1C[C@H](C)OC(c2nsc3cc(F)c(-n4c(=O)cc(C(F)(F)F)n(C)c4=O)cc23)O1 (some centres unmarked) [Compound 67]"
test_system = "ABUTH (Abutilon theophrasti)"
assay_value = 9.0

[[record]]
molecule = "C=CC1COC(c2nsc3ccc(-n4c(=O)cc(C(F)(F)F)n(C)c4=O)cc23)O1 (centres unmarked) [Compound 76]"
test_system = "ABUTH (Abutilon theophrasti)"
assay_value = 9.0

[[record]]
molecule = "Cn1c(C(F)(F)F)cc(=O)n(-c2ccc3snc(C4OCCO4)c3c2)c1=O [Compound 45]"
test_system = "ABUTH (Abutilon theophrasti)"
assay_value = 9.0

[[record]]
molecule = "Cn1c(C(F)(F)F)cc(=O)n(-c2ccc3snc(C4OCC(c5ccccc5)O4)c3c2)c1=O (centres unmarked) [Compound 78]"
test_system = "ABUTH (Abutilon theophrasti)"
assay_value = 9.0

[[record]]
molecule = "Cn1c(C(F)(F)F)cc(=O)n(-c2ccc3snc(C4OCCCS4)c3c2)c1=O (centres unmarked) [Compound 34]"
test_system = "ABUTH (Abutilon theophrasti)"
assay_value = 9.0

[[record]]
molecule = "Cn1c(C(F)(F)F)cc(=O)n(-c2ccc3snc(-c4nccs4)c3c2)c1=O [Compound 53]"
test_system = "ABUTH (Abutilon theophrasti)"
assay_value = 7.5

[[record]]
molecule = "Cn1c(C(F)(F)F)cc(=O)n(-c2ccc3snc(-c4sccc4Cl)c3c2)c1=O [Compound 52]"
test_system = "ABUTH (Abutilon theophrasti)"
assay_value = 8.5

[[record]]
molecule = "COCC1COC(c2nsc3ccc(-n4c(=O)cc(C(F)(F)F)n(C)c4=O)cc23)O1 (centres unmarked) [Compound 64]"
test_system = "ABUTH (Abutilon theophrasti)"
assay_value = 9.0

[[record]]
molecule = "C[C@@H]1C[C@H](C)OC(c2nsc3ccc(-n4c(=O)cc(C(F)(F)F)n(C)c4=O)cc23)O1 (some centres unmarked) [Compound 50]"
test_system = "ABUTH (Abutilon theophrasti)"
assay_value = 9.0

